experimental-system: T1, αCD3 scFv
T1 construct: also called anti-CD3 scFv; CD3 scFv (SP34.185) wt
procedure-details: competition ELISA; peptide titrated and pre-incubated with a constant concentration of αCD3 scFv; blocked: binding of the scFv to plate-bound biotinylated CD3
measurement-type: IC50 (nM)
Answers are plain numbers, in nM.

Asked: May I ask what IC50 has been recorded for YLCGPDGDETLACY (also called CD3 scFv peptide mask) [Peptide-70] ?
Given back: 10

Continuing:
Asked: May I ask what IC50 has been recorded for VYCGPEFDESVGCM (also called CD3 scFv peptide mask) [Peptide-67] ?
Given back: 50

Origin of the recorded values: patent US20230357429A1
